# Tested on: T47D
# RUN DESCRIPTION: NCI tumour cell line growth inhibition, 48 h
The source made the active and inactive calls. Rule as the data show it: active = GI50 up to about 1.1 µM and inactive = higher.
Outcomes: class 1 (active), class 0 (inactive)

[
  {
    "COMPOUND": "CC(C#N)(NO)C(C)(C#N)NO (configuration not stated)",
    "GROUP LABEL": "class 0"
  },
  {
    "COMPOUND": "COC(=O)CCCC(=O)NC1=C(Nc2ccc(OC)cc2)C(=O)c2ccccc2C1=O",
    "GROUP LABEL": "class 0"
  },
  {
    "COMPOUND": "Cc1cc(OCc2nnc3n2N=C(c2cc(F)c(Cl)cc2Cl)/C(=C/c2ccc(Cl)cc2)S3)ccc1Cl",
    "GROUP LABEL": "class 0"
  },
  {
    "COMPOUND": "CCC1CN2CCc3c([nH]c4ccccc34)[C@@](C(=O)OC)(c3cc4c(cc3OC)N(C)C3C(O)(C(=O)OC)C(C(=O)OC)C5(CC)C=CCN6CCC43C65)C[C@@H](C2)[C@@H]1C(C)(C)C (some centres not stated)",
    "GROUP LABEL": "class 1"
  },
  {
    "COMPOUND": "C=CCc1ccccc1CC1(OCC)OC(=O)c2ccccc21 (configuration not stated)",
    "GROUP LABEL": "class 0"
  },
  {
    "COMPOUND": "CN(C)c1nc2oc(-c3ccccc3)c(-c3ccccc3)c2c2nncn12",
    "GROUP LABEL": "class 0"
  },
  {
    "COMPOUND": "CCOC(=O)NC(Nc1ccc(OC(F)(F)F)cc1)(C(F)(F)F)C(F)(F)F",
    "GROUP LABEL": "class 0"
  },
  {
    "COMPOUND": "CC1(CF)SCc2nc3ccccc3n21 (configuration not stated)",
    "GROUP LABEL": "class 0"
  },
  {
    "COMPOUND": "CC(=O)OCCN1c2ccccc2Sc2cnccc21",
    "GROUP LABEL": "class 0"
  },
  {
    "COMPOUND": "Nc1ccccc1CC(O)C(=O)O (configuration not stated)",
    "GROUP LABEL": "class 0"
  },
  {
    "COMPOUND": "O=c1cc(C(F)(F)F)c2cc3c(cc2o1)NCCC3",
    "GROUP LABEL": "class 0"
  },
  {
    "COMPOUND": "CSC1=C(C(=O)Nc2ccc(C)cc2)C(N)=NC1=O",
    "GROUP LABEL": "class 0"
  },
  {
    "COMPOUND": "COC1=C2CC(C)CC(OC)[C@@H](OC(=O)CCN)[C@H](C)/C=C(\\C)C(OC(N)=O)C(OC)/C=C\\C=C(/C)C(=O)NC(=CC1=O)C2=O (some centres not stated)",
    "GROUP LABEL": "class 1"
  },
  {
    "COMPOUND": "CC(C)=CCC[C@@H](C)C1=CC(=O)C(C)=C(O)C1=O [ISOPEREZONE]",
    "GROUP LABEL": "class 0"
  },
  {
    "COMPOUND": "C=CCNC1=C2C[C@@H](C)C[C@@H](OC)[C@H](OC(=O)CCCCN)[C@H](C)/C=C(\\C)[C@@H](OC(N)=O)[C@H](OC)/C=C\\C=C(/C)C(=O)NC(=CC1=O)C2=O",
    "GROUP LABEL": "class 0"
  },
  {
    "COMPOUND": "CCCCCCCCCCCCCC(=O)O[C@H]1CC[C@H](NC(=O)[C@H](OC)[C@H](O)[C@@H](O)[C@H](O)/C=C/C(C)C)C(=O)NC1 [BENGAMIDE A]",
    "GROUP LABEL": "class 1"
  },
  {
    "COMPOUND": "CCCCc1ccc(-n2sc3ncc(-c4ccccc4)cc3c2=O)cc1",
    "GROUP LABEL": "class 0"
  },
  {
    "COMPOUND": "Cc1nc2ccc(S(=O)(=O)Nc3ccccn3)cc2c(=O)n1NS(=O)(=O)c1ccccn1",
    "GROUP LABEL": "class 0"
  },
  {
    "COMPOUND": "Clc1ccc(-c2c(C3=NCCCN3)nnn2-c2ccc(Cl)cc2)cc1",
    "GROUP LABEL": "class 0"
  },
  {
    "COMPOUND": "Cc1[nH]n(-c2ccc(S(=O)(=O)O)cc2)c(=O)c1/N=N/c1ccccc1",
    "GROUP LABEL": "class 0"
  },
  {
    "COMPOUND": "CC(=O)N1C(C(=O)NNc2ccccc2)CSC1c1ccccc1 (configuration not stated)",
    "GROUP LABEL": "class 0"
  },
  {
    "COMPOUND": "CC(=O)OC(C)c1cc2c(s1)C(=O)c1c(C(C)OC(C)=O)csc1C2=O (configuration not stated)",
    "GROUP LABEL": "class 0"
  },
  {
    "COMPOUND": "C=CO/N=[N+](\\[O-])N(CC)CC",
    "GROUP LABEL": "class 0"
  },
  {
    "COMPOUND": "O=C1c2cccc3cccc(c23)C2NCCCN12 (configuration not stated)",
    "GROUP LABEL": "class 0"
  },
  {
    "COMPOUND": "CN(C)/C=N/c1c2c(nc3ccccc13)CCCC2",
    "GROUP LABEL": "class 0"
  },
  {
    "COMPOUND": "COc1ccc(Cn2c(=O)c(OC)c(C)c3cc4ccccc4cc32)cc1",
    "GROUP LABEL": "class 0"
  },
  {
    "COMPOUND": "O=C(O)c1ccc(NC(NC(=O)C(C(F)(F)F)C(F)(F)F)(C(F)(F)F)C(F)(F)F)cc1",
    "GROUP LABEL": "class 0"
  },
  {
    "COMPOUND": "C=CCSC1=N/C(=C\\c2ccc(C)cc2)C(=O)N1CC=C",
    "GROUP LABEL": "class 0"
  },
  {
    "COMPOUND": "NC1=NC(=O)/C(=C2\\CCNC(=O)c3[nH]c(Br)cc32)N1 [HYMENIALDISINE]",
    "GROUP LABEL": "class 0"
  },
  {
    "COMPOUND": "NC(=S)NS(=O)(=O)c1ccc(F)cc1F",
    "GROUP LABEL": "class 0"
  },
  {
    "COMPOUND": "CNc1nc(=S)[nH]c2sc3c(c12)CCCC3",
    "GROUP LABEL": "class 0"
  },
  {
    "COMPOUND": "O=C1c2ccccc2-c2oc(=O)c3ccccc3c21",
    "GROUP LABEL": "class 0"
  },
  {
    "COMPOUND": "C=CC(=O)N1C/C(=C\\c2ccccc2)C(=O)/C(=C/c2ccccc2)C1",
    "GROUP LABEL": "class 0"
  },
  {
    "COMPOUND": "CCOP(=O)(OCC)C(Nc1cccc(F)c1)c1ccccc1 (configuration not stated)",
    "GROUP LABEL": "class 0"
  },
  {
    "COMPOUND": "Cc1c(N2C(=O)/C(=C/C=C/c3ccccc3)N=C2c2ccccc2)c(=O)n(-c2ccccc2)n1C",
    "GROUP LABEL": "class 0"
  },
  {
    "COMPOUND": "COc1ccc(C=O)cc1OS(=O)(=O)C(F)(F)C(F)(F)C(F)(F)C(F)(F)F",
    "GROUP LABEL": "class 0"
  },
  {
    "COMPOUND": "O=C1C(=C(I)I)c2ccccc2-c2ccccc21",
    "GROUP LABEL": "class 0"
  },
  {
    "COMPOUND": "C=C1C(=O)OC2C3C(=C)[C@@H](OC(C)=O)CC3C(C)=CC(OC(=O)C(C)(OC(C)=O)C(C)OC(C)=O)[C@@H]12 (some centres not stated)",
    "GROUP LABEL": "class 0"
  },
  {
    "COMPOUND": "O=C1Nc2ccccc2/C1=N/N=c1\\cccc[nH]1",
    "GROUP LABEL": "class 0"
  },
  {
    "COMPOUND": "CN1Cc2ccccc2/C=C\\c2ccccc21",
    "GROUP LABEL": "class 0"
  },
  {
    "COMPOUND": "OC[C@]1(n2nc3ccccc3n2)OC[C@@H]1c1ccccc1",
    "GROUP LABEL": "class 0"
  },
  {
    "COMPOUND": "OCCCNCc1ccccn1",
    "GROUP LABEL": "class 0"
  }
]

---

# Test system: IGROV-1
# RUN DESCRIPTION: NCI tumour cell line growth inhibition, 48 h
Activity calls are given as the source filed them. Rule as the data show it: active = GI50 up to about 1.1 µM and inactive = higher.
Measured GI50, listed per entry.

[
  {
    "COMPOUND": "c1ccc2c3c(c(N4CCNCC4)nc2c1)CCCC3",
    "TARGET OR SYSTEM": "IGROV-1",
    "GI50": "12.4 µM (inactive)"
  },
  {
    "COMPOUND": "COc1cccc(C2CC(C)(N3CCCC3)Oc3cc4c(cc32)OCO4)c1O (stereo unspecified)",
    "TARGET OR SYSTEM": "IGROV-1",
    "GI50": "26.2 µM (inactive)"
  },
  {
    "COMPOUND": "Cc1c(C(=O)CC(=O)C(=O)NC2C3CC4CC(C3)CC2C4)[n+]([O-])c2ccccc2[n+]1[O-] (stereo unspecified)",
    "TARGET OR SYSTEM": "IGROV-1",
    "GI50": "> 100 µM (inactive)"
  },
  {
    "COMPOUND": "CCOC(=O)c1c(N2CCOCC2)ncn(-c2cccc(Cl)c2)c1=O",
    "TARGET OR SYSTEM": "IGROV-1",
    "GI50": "> 100 µM (inactive)"
  },
  {
    "COMPOUND": "CCCCc1ccc(-n2sc3ncc(-c4ccccc4)cc3c2=O)cc1",
    "TARGET OR SYSTEM": "IGROV-1",
    "GI50": "> 100 µM (inactive)"
  },
  {
    "COMPOUND": "COc1ccc([C@@]23Oc4cc(OC)cc(OC)c4[C@]2(O)[C@H](O)[C@H](C(N)=O)[C@H]3c2ccccc2)cc1 [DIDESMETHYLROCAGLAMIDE]",
    "TARGET OR SYSTEM": "IGROV-1",
    "GI50": "< 0.01 µM (active)"
  },
  {
    "COMPOUND": "N#C/N=C(\\N)NCCO",
    "TARGET OR SYSTEM": "IGROV-1",
    "GI50": "> 100 µM (inactive)"
  },
  {
    "COMPOUND": "OC(Cc1cccnc1)(c1ccccc1)c1ccccc1",
    "TARGET OR SYSTEM": "IGROV-1",
    "GI50": "> 100 µM (inactive)"
  },
  {
    "COMPOUND": "C/N=c1\\ss/c(=N\\C(=S)N(C)C)n1C1CCCCC1",
    "TARGET OR SYSTEM": "IGROV-1",
    "GI50": "> 31.6 µM (inactive)"
  },
  {
    "COMPOUND": "C=C[C@@]1(C)CC2CC[C@]3(C)C(C)=CC(=O)CC3[C@]2(C)CC1O (stereo partly specified)",
    "TARGET OR SYSTEM": "IGROV-1",
    "GI50": "> 100 µM (inactive)"
  },
  {
    "COMPOUND": "Cc1ccc(S(=O)(=O)NCCN(CCNS(=O)(=O)c2ccc(C)cc2)S(=O)(=O)c2ccc(C)cc2)cc1",
    "TARGET OR SYSTEM": "IGROV-1",
    "GI50": "84.1 µM (inactive)"
  },
  {
    "COMPOUND": "O=c1c(C(c2ccc(C(c3c(O)oc4cc(O)ccc4c3=O)c3c(O)oc4cc(O)ccc4c3=O)cc2)c2c(O)oc3cc(O)ccc3c2=O)c(O)oc2cc(O)ccc12",
    "TARGET OR SYSTEM": "IGROV-1",
    "GI50": "> 100 µM (inactive)"
  },
  {
    "COMPOUND": "COC(=O)C(C)(/N=C/c1ccccc1)c1ccccc1 (stereo unspecified)",
    "TARGET OR SYSTEM": "IGROV-1",
    "GI50": "> 100 µM (inactive)"
  },
  {
    "COMPOUND": "O=C(CC(C(=O)c1cccs1)c1ccsc1)c1ccsc1 (stereo unspecified)",
    "TARGET OR SYSTEM": "IGROV-1",
    "GI50": "54.1 µM (inactive)"
  },
  {
    "COMPOUND": "C=CCOc1ccc(C2(c3ccc(OCC=C)cc3)C(=O)Nc3ccccc32)cc1",
    "TARGET OR SYSTEM": "IGROV-1",
    "GI50": "> 10 µM (inactive)"
  },
  {
    "COMPOUND": "C[Si](C)(C)C#C[I+]c1ccccc1",
    "TARGET OR SYSTEM": "IGROV-1",
    "GI50": "92 µM (inactive)"
  },
  {
    "COMPOUND": "CCCCCCCCCCCCCCCCOCC(Cl)COP(=O)(O)OP(=O)(O)OCC1OC(n2cc(C)c(=O)[nH]c2=O)CC1O (stereo unspecified)",
    "TARGET OR SYSTEM": "IGROV-1",
    "GI50": "55.2 µM (inactive)"
  },
  {
    "COMPOUND": "Cc1ccc2c(c1)CC1(Cc3cccc(C)c3C1=O)C2=O (stereo unspecified)",
    "TARGET OR SYSTEM": "IGROV-1",
    "GI50": "> 100 µM (inactive)"
  },
  {
    "COMPOUND": "CCOC(=O)c1nc2ccc([N+](=O)[O-])cc2c2c1CCO2",
    "TARGET OR SYSTEM": "IGROV-1",
    "GI50": "> 100 µM (inactive)"
  },
  {
    "COMPOUND": "O=C(c1ccccc1)C1CCCCN1C(=O)c1ccccc1 (stereo unspecified)",
    "TARGET OR SYSTEM": "IGROV-1",
    "GI50": "> 100 µM (inactive)"
  },
  {
    "COMPOUND": "Cc1ccc(S[C@@H](C)[C@@](O)(C(N)=O)c2ccccc2)cc1",
    "TARGET OR SYSTEM": "IGROV-1",
    "GI50": "3.74 µM (inactive)"
  }
]
